TARGET OR TEST SYSTEM: PDE 4 enzyme
ASSAY OVERVIEW: PDE 4 enzyme inhibition (SPA, Amersham kit)
Format: biochemical
CONDITION NOTES: PDE 4 purified from human PMNs; cAMP 1 μM; 40 minutes at 30° C.; 9 concentrations
READOUT LABEL: IC50 (nM)
Report the figure in nM without appending any unit label.

Give recorded IC50. COc1ccc2c(c1CC1CCCC1)CCN=C2Cc1c(Cl)cncc1Cl
35.9

----------
Documented melting point across a set of compounds

{"COMPOUND": "COc1ccc2c(c1)C(CCCCCCc1ccccc1)CN=C2Cc1c(Cl)cncc1Cl.Cl.Cl (centres unmarked)", "READOUT LABEL": "melting point", "MEASURED VALUE": "135 to 137 °C (dec.)"}
{"COMPOUND": "COc1cccc2c1C(Cc1c(Cl)cncc1Cl)=NCC2CCCCCCc1ccccc1.Cl.Cl (centres unmarked)", "READOUT LABEL": "melting point", "MEASURED VALUE": "117 to 119 °C (dec.)"}
{"COMPOUND": "COc1ccc2c(c1)C(CC1CCCC1)CN=C2Cc1c(Cl)cncc1Cl.Cl.Cl (centres unmarked)", "READOUT LABEL": "melting point", "MEASURED VALUE": "162 to 164 °C (dec.)"}

Name the recorded melting point of the item COc1cccc2c1C(Cc1c(Cl)cncc1Cl)=NCC2CC1CCCC1.Cl.Cl (centres unmarked) in your answer.
189 to 190 °C (dec.)

In one line, give reported melting point of the entry COc1ccc2c(c1)c(-c1ccccc1)cc(=O)n2Cc1c(Cl)cncc1Cl .
191 to 192 °C
